All values here come from patent US20110118447A1.

# studySystem: binding partner of C5A (XPA23)
# assayProtocol: Biacore, K-off
propertyMeasured: fold difference in affinity vs original (fold)
I only need the number, in fold, no unit after it.

- binder: "C5A (XPA23) VH Y101T (antibody, V domains shown) VH: EVQLLESGGGLVQPGGSLRLSCAASGFTFSKYFMFWVRQAPGKGLEWVSVISPSGGMTRYADSVKGRFTISRDNSKNTLYLQMNSLRAEDTAVYYCARVGTGGNSDYWGQGTLVTVSS VL: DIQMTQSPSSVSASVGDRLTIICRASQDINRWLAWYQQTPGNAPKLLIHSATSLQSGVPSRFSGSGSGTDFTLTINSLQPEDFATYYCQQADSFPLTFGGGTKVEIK"
  fold difference in affinity vs original [fold]: 0.06

Now take the following binder into account.
## Input Look up and report measured fold difference in affinity vs original for this entry: C5A (XPA23) VH R59S (antibody, V domains shown) VH: EVQLLESGGGLVQPGGSLRLSCAASGFTFSKYFMFWVRQAPGKGLEWVSVISPSGGMTSYADSVKGRFTISRDNSKNTLYLQMNSLRAEDTAVYYCARVGYGGNSDYWGQGTLVTVSS VL: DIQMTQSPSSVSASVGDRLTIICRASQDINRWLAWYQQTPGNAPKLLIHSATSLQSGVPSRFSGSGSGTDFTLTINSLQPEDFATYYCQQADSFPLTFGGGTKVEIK
## Output 0.13
